- Tested on: Escherichia coli TOP10
- Protocol: shrunken log2 fold change of peptide-encoding DNA abundance (4.5 h post-induction vs induction); higher = less antimicrobial activity (less host growth inhibition)
- Assay context: time post-induction: 4.5 h; library: site-saturation at positions 5, 18, 19, 20
Quantity: shrunken log2 fold change

Sequence | Target or test system | Observed measurement
RRIRDRPPRLPRPRPRPYCAPRP | Escherichia coli TOP10 | -0.204
RRIRRRPPRLPRPRPRPLGHPRP | Escherichia coli TOP10 | 0.203
RRIRWRPPRLPRPRPRPDSTPRP | Escherichia coli TOP10 | -0.0382
RRIRIRPPRLPRPRPRPRENPRP | Escherichia coli TOP10 | 0.0178
RRIRGRPPRLPRPRPRPQQHPRP | Escherichia coli TOP10 | 0.232

* * *

- System: Escherichia coli TOP10;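 note: peptides expressed intracellularly from a pBAD plasmid library in pooled LB shake-flask culture, induced with 0.3% L-arabinose, DNA abundance read by NGS, three biological replicates, DESeq2 with apeglm shrinkage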
- Protocol: shrunken log2 fold change of peptide-encoding DNA abundance (4.5 h post-induction vs induction); higher = less antimicrobial activity (less host growth inhibition)
- Assay context: time post-induction: 4.5 h; library: site-saturation at positions 5, 18, 19, 20
The following sequences are shown together with reported shrunken log2 fold change values.

Sequence | Target or test system | shrunken log2 fold change
RRIRNRPPRLPRPRPRPIFLPRP | Escherichia coli TOP10 | -0.182
RRIRGRPPRLPRPRPRPCAGPRP | Escherichia coli TOP10 | 0.834
RRIRFRPPRLPRPRPRPCWCPRP | Escherichia coli TOP10 | -0.00345
RRIRARPPRLPRPRPRPCHSPRP | Escherichia coli TOP10 | 0.0213
RRIRPRPPRLPRPRPRPMIAPRP | Escherichia coli TOP10 | -0.0488
RRIRPRPPRLPRPRPRPSPGPRP | Escherichia coli TOP10 | 0.0372
RRIRLRPPRLPRPRPRPKFPPRP | Escherichia coli TOP10 | -0.26
RRIRVRPPRLPRPRPRPDCCPRP | Escherichia coli TOP10 | -0.0439
RRIRSRPPRLPRPRPRPWEEPRP | Escherichia coli TOP10 | 0.0166
RRIRVRPPRLPRPRPRPSHQPRP | Escherichia coli TOP10 | 0.0669
RRIRARPPRLPRPRPRPSIAPRP | Escherichia coli TOP10 | 0.186
RRIRDRPPRLPRPRPRPESNPRP | Escherichia coli TOP10 | 0.892
RRIRFRPPRLPRPRPRPWHWPRP | Escherichia coli TOP10 | 0.00852
RRIRFRPPRLPRPRPRPLVPPRP | Escherichia coli TOP10 | 0.338
RRIRNRPPRLPRPRPRPQCNPRP | Escherichia coli TOP10 | -0.468
RRIRKRPPRLPRPRPRPCYEPRP | Escherichia coli TOP10 | -0.311
RRIRVRPPRLPRPRPRPIIHPRP | Escherichia coli TOP10 | -0.809
RRIRNRPPRLPRPRPRPHYQPRP | Escherichia coli TOP10 | -0.568
RRIRARPPRLPRPRPRPTAHPRP | Escherichia coli TOP10 | 0.485
RRIRDRPPRLPRPRPRPDKTPRP | Escherichia coli TOP10 | 0.0138
RRIRRRPPRLPRPRPRPVPHPRP | Escherichia coli TOP10 | 0.449
RRIRCRPPRLPRPRPRPTRLPRP | Escherichia coli TOP10 | 0.558
RRIRSRPPRLPRPRPRPAQCPRP | Escherichia coli TOP10 | 0.0899
RRIRTRPPRLPRPRPRPMMYPRP | Escherichia coli TOP10 | -0.00147
RRIRMRPPRLPRPRPRPWVAPRP | Escherichia coli TOP10 | 0.109
RRIRFRPPRLPRPRPRPHGNPRP | Escherichia coli TOP10 | -0.414
RRIRTRPPRLPRPRPRPLTHPRP | Escherichia coli TOP10 | -0.0616
